Values compiled from paper PMC4160279.

Target: P dimer VA115 (Human calicivirus NLV/VA98115/1998)
Sequence (Q91H12 227-545): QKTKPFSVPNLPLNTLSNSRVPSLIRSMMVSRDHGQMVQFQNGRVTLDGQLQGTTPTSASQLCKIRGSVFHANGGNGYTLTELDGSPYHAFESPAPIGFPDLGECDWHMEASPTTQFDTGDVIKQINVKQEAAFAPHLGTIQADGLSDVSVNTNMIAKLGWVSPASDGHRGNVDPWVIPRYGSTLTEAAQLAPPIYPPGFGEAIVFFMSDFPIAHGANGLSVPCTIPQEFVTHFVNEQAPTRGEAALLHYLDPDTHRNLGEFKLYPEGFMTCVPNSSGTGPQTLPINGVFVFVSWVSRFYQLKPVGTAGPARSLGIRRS
Assay: Direct ESI-MS assay
Conditions: n = 3
reported-endpoint: Kd (µM)
Expressed in µM, but write only the number.

Sample answers from the record:
CC(=O)N[C@H]1[C@H](O[C@@H]2[C@H](O[C@]3(C(=O)O)C[C@H](O)[C@@H](NC(C)=O)[C@H]([C@H](O)[C@H](O)CO)O3)[C@@H](O)[C@H](O[C@H]3[C@H](O)[C@@H](O)C(O)O[C@@H]3CO)O[C@@H]2CO)O[C@H](CO)[C@H](O)[C@@H]1O[C@@H]1O[C@H](CO)[C@H](O)[C@H](O)[C@H]1O (stereo partly drawn); 2500
CC(=O)N[C@H]1[C@H]([C@H](O)[C@H](O)CO)O[C@@](O[C@H](CO)[C@@H](O)[C@@H]2O[C@@](O[C@H]3[C@@H](O)[C@@H](CO)O[C@@H](O[C@H]4[C@H](O)[C@@H](O)C(O)O[C@@H]4CO)[C@@H]3O)(C(=O)O)C[C@H](O)[C@H]2NC(C)=O)(C(=O)O)C[C@@H]1O (stereo partly drawn); 2380

Consider the record given below.
Record CC(=O)N[C@H]1[C@H](O[C@@H]2[C@H](O[C@]3(C(=O)O)C[C@H](O)[C@@H](NC(C)=O)[C@H]([C@H](O)[C@@H](CO)O[C@]4(C(=O)O)C[C@H](O)[C@@H](NC(C)=O)[C@H]([C@H](O)[C@H](O)CO)O4)O3)[C@@H](O)[C@H](O[C@H]3[C@H](O)[C@@H](O)C(O)O[C@@H]3CO)O[C@@H]2CO)O[C@H](CO)[C@H](O)[C@@H]1O[C@@H]1O[C@H](CO)[C@H](O)[C@H](O)[C@H]1O (stereo partly drawn) . Reported Kd: 2940
